- measured-target: Neuronal acetylcholine receptor subunit alpha-7 (Homo sapiens)
- test: Inhibition of nAChR alpha7 receptor (unknown origin) assessed as inhibition of calcium flux
pIC50: −log10 of the molar value.

{"columns": ["compound", "measured-target", "pIC50"],
 "data": [
  ["COCC[C@H]1C[C@H]2CN3CCc4c([nH]c5ccc(OC)cc45)[C@](C(=O)OC)(C2)[C@H]13 (racemic)", "Neuronal acetylcholine receptor subunit alpha-7 (Homo sapiens)", 4.46]
]}

====

- measured-target: Neuronal acetylcholine receptor subunit alpha-7 (Homo sapiens, UniProt P36544)
- Sequence (P36544 whole entry): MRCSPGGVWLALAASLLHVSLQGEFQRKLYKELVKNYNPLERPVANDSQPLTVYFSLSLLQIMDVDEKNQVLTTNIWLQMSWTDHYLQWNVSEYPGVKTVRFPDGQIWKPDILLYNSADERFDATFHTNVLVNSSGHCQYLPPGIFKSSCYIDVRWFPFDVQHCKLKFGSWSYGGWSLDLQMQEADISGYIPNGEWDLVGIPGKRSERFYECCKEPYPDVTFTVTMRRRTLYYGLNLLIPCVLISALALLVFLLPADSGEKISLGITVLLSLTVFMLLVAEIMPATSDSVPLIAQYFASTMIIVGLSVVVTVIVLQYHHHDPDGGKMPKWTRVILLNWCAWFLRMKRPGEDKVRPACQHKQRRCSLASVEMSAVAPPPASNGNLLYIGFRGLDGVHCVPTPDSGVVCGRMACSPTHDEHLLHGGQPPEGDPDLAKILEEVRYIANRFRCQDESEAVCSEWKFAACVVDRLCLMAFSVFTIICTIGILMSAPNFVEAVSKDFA
- test: Antagonist activity at alpha7 nAChRs (unknown origin) assessed as inhibition constant
property-measured: Ki (µM)

{"columns": ["compound", "property-measured", "experimental-result"],
 "data": [
  ["CNC1(C)[C@H]2CC[C@H](C2)C1(C)C (mixture of isomers)", "Ki", 6.9]
]}

====

Quick reference for IC50 among some molecules
- measured-target: Neuronal acetylcholine receptor; alpha4/beta2 (Homo sapiens, UniProt P17787+P43681)
- Sequence (P17787 whole entry): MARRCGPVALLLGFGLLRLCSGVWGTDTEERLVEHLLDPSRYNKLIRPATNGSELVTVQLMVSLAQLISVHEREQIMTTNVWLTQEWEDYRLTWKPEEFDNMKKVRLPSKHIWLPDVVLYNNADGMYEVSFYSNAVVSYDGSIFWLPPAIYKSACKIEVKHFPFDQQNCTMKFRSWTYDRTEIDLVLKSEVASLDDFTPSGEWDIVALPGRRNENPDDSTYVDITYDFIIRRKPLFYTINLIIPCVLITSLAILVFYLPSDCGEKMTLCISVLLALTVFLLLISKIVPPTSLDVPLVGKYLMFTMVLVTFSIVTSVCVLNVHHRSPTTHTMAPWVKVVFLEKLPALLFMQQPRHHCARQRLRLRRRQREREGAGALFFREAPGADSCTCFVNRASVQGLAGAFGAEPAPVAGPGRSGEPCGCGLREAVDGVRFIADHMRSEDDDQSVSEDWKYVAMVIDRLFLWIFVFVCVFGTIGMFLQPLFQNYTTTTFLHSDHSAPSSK
- Sequence (P43681 whole entry): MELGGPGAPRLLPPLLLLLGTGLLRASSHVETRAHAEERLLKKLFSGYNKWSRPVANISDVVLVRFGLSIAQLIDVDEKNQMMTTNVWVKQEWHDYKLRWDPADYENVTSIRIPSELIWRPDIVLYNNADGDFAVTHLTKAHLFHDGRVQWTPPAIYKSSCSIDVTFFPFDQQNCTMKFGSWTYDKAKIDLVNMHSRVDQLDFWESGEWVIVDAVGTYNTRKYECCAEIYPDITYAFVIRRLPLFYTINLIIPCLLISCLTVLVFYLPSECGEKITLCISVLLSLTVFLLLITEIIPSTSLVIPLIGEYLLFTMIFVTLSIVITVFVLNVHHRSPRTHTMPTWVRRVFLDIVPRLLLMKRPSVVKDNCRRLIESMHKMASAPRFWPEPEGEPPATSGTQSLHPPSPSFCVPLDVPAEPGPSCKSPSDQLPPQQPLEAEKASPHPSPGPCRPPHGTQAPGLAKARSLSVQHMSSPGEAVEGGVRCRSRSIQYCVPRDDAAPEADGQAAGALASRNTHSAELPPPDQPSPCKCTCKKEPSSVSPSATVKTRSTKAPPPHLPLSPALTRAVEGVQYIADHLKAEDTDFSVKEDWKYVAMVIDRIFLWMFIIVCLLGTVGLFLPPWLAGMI
- test: Antagonist activity at alpha4beta2 nAChR in HEK293 cells by voltage-clamp based electrophysiological method
- Format: cell-based
property-measured: IC50

{"columns": ["molecule", "experimental-result"],
 "data": [
  ["COCC[C@H]1C[C@H]2CN3CCc4c([nH]c5ccc(OC)cc45)[C@](C(=O)OC)(C2)[C@H]13 (racemic)", "> 20000 nM"],
  ["CC[C@H]1C[C@@H]2C[C@H]3c4[nH]c5ccc(OC)cc5c4CC[N@@](C2)[C@@H]13", "1000 nM"]
]}

====

- measured-target: Muscarinic acetylcholine receptor M5 (Homo sapiens, UniProt P08912)
- Sequence (P08912 whole entry): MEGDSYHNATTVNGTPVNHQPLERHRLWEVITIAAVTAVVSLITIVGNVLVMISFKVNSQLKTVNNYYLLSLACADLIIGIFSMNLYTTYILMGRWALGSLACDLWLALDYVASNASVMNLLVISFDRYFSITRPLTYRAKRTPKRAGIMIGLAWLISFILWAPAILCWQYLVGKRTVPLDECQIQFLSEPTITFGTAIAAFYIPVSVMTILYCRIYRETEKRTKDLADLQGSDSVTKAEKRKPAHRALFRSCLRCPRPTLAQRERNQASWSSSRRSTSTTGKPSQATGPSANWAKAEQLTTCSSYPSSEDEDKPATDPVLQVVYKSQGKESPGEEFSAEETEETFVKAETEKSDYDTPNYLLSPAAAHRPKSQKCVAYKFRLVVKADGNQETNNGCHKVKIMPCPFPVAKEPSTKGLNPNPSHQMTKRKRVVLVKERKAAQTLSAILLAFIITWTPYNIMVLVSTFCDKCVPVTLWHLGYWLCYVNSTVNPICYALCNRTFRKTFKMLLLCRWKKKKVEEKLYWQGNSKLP
- test: Antagonist activity at muscarinic M5 receptor (unknown origin)
pIC50: −log10 of the molar value.
property-measured: pIC50

{"columns": ["molecule", "experimental-result"],
 "data": [
  ["CN1C2CCCC1CC(Nc1ccccc1Br)C2 (stereo unspecified)", 6.49]
]}

====

- measured-target: Neuronal acetylcholine receptor; alpha4/beta2 (Homo sapiens, UniProt P17787+P43681)
- test: Partial agonist activity at alpha4beta2 nAChR in HEK293 cells assessed as reduction in Ca+2 influx by FLIPR assy
- Format: cell-based
property-measured: IC50 (nM)

{"columns": ["smiles-text", "unit-text", "experimental-result"],
 "data": [
  ["FC(F)(F)c1ccc2c(c1)[C@@H]1CNC[C@H]2C1", "nM", 110]
]}

====

- measured-target: Neuronal acetylcholine receptor; alpha3/beta4 (Homo sapiens, UniProt P30926+P32297)
- Sequence (P30926 whole entry): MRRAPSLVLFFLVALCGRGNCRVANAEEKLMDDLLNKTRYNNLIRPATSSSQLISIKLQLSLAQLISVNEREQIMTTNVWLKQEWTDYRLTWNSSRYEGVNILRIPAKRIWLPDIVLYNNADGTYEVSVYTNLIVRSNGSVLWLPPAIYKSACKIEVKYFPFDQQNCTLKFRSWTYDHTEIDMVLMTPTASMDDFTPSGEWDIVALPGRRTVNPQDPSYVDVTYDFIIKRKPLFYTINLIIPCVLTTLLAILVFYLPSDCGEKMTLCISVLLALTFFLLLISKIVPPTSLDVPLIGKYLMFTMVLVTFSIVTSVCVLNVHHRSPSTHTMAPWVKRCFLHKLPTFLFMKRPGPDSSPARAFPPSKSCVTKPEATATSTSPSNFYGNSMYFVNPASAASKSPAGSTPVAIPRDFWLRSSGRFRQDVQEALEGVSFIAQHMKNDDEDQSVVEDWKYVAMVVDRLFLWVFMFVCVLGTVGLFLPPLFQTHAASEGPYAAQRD
- Sequence (P32297 whole entry): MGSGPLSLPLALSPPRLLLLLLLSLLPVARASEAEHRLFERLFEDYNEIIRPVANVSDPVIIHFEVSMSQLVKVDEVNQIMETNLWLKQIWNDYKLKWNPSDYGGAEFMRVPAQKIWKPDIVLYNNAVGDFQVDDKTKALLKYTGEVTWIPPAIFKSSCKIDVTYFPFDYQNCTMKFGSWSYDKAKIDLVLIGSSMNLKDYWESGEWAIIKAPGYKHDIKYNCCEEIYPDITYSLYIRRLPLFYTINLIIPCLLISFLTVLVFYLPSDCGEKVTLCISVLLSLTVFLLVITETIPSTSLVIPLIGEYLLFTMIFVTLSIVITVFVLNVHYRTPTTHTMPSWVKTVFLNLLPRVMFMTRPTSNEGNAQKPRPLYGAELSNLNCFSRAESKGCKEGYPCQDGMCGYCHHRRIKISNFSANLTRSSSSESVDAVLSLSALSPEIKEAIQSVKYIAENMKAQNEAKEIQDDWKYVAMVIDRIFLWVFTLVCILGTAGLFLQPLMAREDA
- test: Displacement of [3H]imipramine from human alpha3beta4 nAChRs expressed in HEK293 cells assessed as inhibition constant incubated for 2 hrs by scintillation counter analysis
- Type: cell-based
pKi: −log10 of the molar value.

{"columns": ["compound", "pKi"],
 "data": [
  ["COCC[C@H]1C[C@H]2CN3CCc4c([nH]c5ccc(OC)cc45)[C@](C(=O)OC)(C2)[C@H]13 (racemic)", 6.40]
]}

====

- test: Displacement of [3H]-DPDPE from calf caudate nucleus DOR receptor assessed as inhibition constant
- Type: tissue-based, Bos taurus
Quick reference for Ki among some compounds
property-measured: Ki

{"columns": ["compound", "experimental-result"],
 "data": [
  ["COCC[C@H]1C[C@H]2CN3CCc4c([nH]c5ccc(OC)cc45)[C@](C(=O)OC)(C2)[C@H]13 (racemic)", "3.5 nM"],
  ["CC[C@H]1C[C@@H]2C[C@H]3c4[nH]c5ccc(OC)cc5c4CC[N@@](C2)[C@@H]13", "> 10 nM"]
]}

====

- measured-target: Neuronal acetylcholine receptor; alpha4/beta2 (Homo sapiens, UniProt P17787+P43681)
- test: Inhibition of nAChR alpha4beta2 receptor (unknown origin)
- Type: protein-complex assay

{"columns": ["compound", "IC50"],
 "data": [
  ["COCC[C@H]1C[C@H]2CN3CCc4c([nH]c5ccc(OC)cc45)[C@](C(=O)OC)(C2)[C@H]13 (racemic)", "6.3 µM"]
]}

====

- measured-target: Serotonin 3 (5-HT3) receptor
- test: Antagonist activity at 5-HT3 receptor (unknown origin)

{"columns": ["molecule", "IC50 / nM"],
 "data": [
  ["CN1C2CCCC1CC(Nc1ccccc1Br)C2 (stereo unspecified)", 600]
]}

====

- measured-target: Neuronal acetylcholine receptor; alpha3/beta4 (Homo sapiens, UniProt P30926+P32297)
- test: Partial agonist activity at alpha3beta4 nAChR in HEK293 cells assessed as reduction in Ca+2 influx by FLIPR assy
- Format: cell-based
property-measured: IC50 (nM)

{"columns": ["smiles-text", "property-measured", "experimental-result"],
 "data": [
  ["FC(F)(F)c1ccc2c(c1)[C@@H]1CNC[C@H]2C1", "IC50", 260]
]}
